Biological target: Epidermal growth factor receptor (Homo sapiens, UniProt P00533)
Sequence (P00533 whole entry): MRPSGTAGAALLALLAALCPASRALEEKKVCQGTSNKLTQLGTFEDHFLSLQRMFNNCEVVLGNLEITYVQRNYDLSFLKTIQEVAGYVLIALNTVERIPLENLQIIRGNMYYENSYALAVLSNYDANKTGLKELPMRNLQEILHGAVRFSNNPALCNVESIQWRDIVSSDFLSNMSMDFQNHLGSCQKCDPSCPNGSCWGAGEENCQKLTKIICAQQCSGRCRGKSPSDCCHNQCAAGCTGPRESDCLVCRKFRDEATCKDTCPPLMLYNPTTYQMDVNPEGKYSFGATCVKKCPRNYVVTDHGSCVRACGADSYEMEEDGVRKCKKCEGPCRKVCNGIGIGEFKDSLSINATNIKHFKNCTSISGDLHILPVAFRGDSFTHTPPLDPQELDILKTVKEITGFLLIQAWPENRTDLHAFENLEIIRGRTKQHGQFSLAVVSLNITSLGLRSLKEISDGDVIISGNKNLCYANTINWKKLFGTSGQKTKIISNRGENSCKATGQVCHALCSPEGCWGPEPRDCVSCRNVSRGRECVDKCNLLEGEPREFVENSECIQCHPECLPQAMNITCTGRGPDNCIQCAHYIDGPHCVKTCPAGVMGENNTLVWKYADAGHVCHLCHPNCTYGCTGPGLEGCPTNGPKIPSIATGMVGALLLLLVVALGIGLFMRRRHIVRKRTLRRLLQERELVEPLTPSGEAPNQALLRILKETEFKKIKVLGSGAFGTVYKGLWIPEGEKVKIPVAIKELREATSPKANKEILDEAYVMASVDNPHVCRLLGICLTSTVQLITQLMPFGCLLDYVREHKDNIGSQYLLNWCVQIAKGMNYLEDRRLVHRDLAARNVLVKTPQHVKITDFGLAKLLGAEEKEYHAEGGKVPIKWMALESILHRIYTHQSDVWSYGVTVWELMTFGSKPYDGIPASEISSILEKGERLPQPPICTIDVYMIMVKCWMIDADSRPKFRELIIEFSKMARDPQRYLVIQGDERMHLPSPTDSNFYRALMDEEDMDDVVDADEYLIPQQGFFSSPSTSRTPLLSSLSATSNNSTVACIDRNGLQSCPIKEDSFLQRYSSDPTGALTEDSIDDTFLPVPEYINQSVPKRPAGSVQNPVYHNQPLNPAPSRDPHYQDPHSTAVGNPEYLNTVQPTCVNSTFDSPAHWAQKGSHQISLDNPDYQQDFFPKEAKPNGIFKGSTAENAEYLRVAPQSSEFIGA
Test: Wild Type EGFR and Mutant EGFR Kinase Inhibition Test
readout kind: IC50 (nM)
Supply the numeric figure in nM, leaving out any unit text.

Name the reported IC50 value associated with the compound C=CC(=O)Nc1cc(Nc2ncc(Cl)c(-c3cnc4c(ccn4C)c3)n2)c(OC)cc1N1CCC(N(C)C)CC1
272
